In this section we review reported self-cleavage values for a set of variants.
B1: HDV Ribozyme (parent)
chain: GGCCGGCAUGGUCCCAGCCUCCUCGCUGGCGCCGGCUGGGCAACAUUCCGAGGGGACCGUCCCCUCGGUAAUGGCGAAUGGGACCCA

# Variants of: B1
# assay_notes: self-cleavage, relative activity (ratio to wild type); higher = more cleavage; co-transcriptional

sequence_variant | self-cleavage
C15A C61A | 0.831
U37A U79C | 0.0623
A83G A87C | 0.906
U47G C86U | 1.11
C22A C58U | 0.332
G35A A56U | 0.72
G50A A51C | 0.991
C57A A87G | 1.07
G39A U69A | 0.443
C48A G67A | 1.04
G25C U72C | 0.123
C64A C84G | 0.536
C21U C32G | 0
G25A C32G | 0.0623
G38U U79A | 0
G17C C30U | 0.655
C49A C66G | 0.96
G5U G17A | 0.189
C13A C18U | 0.0604
C22A A70C | 0.17
A8C C18G | 0.0875
C4U C14A | 0.519
G40A C66U | 0.892
U20G C63U | 0.297
C33A A77G | 0.104
A51G C62A | 0.812
G54U A71U | 0.987
U37C A56G | 1.23
G39A C75G | 0.143
G6C G59A | 0.492
C24A U37C | 0.974
C57A G82A | 0.554
U12A C48A | 0.244
U37A C48G | 0.148
A16C U46G | 0.332
G67C G68A | 0.955
C15U U27A | 0.63
C18G U79G | 0.133
C75A A78U | 0.0852
C3A C86A | 0.535
G11C C24G | 0.0583
C44A U65A | 0.95
G40C C58G | 0.264
U12C C24G | 0.119
U9C A78G | 0.914
U27C C64U | 0.895
G81U C85G | 0.212
C19U C33G | 0.0923
G25A C64A | 0.115
U23G A42G | 0.0665
G5A G50C | 0.225
G25C G76C | 0.0723
C58U A70U | 1.29
U37G G52U | 0.198
G11A G25U | 0.0801
G10U G67U | 0.819
G35A G55A | 0.736
C44A A78U | 0.104
C4A U23C | 0.0978
C7A U72G | 0
A43C A45C | 0.415
C44U | 0.803
C33G G52A | 0.148
A16C A87C | 0.671
G29A C32A | 0.0222
G5U C21A | 0
G11A C18A | 0.0841
G73C C84G | 0.086
G54A C86U | 0.992
A56G A71C | 0.534
G17U C36G | 0
C57G C85G | 1.09
G74U G82U | 0.281
C7G C61U | 0.237
C41A C85A | 0.636

Origin of values: the RNAGym collection of RNA variant scans (doi:10.7554/elife.80360)
